assay: in vivo; details: C57BL/6, mouse, po, 100 mg/kg
Assay Readout: Kp

Task: Give its Kp value. Item: `CC(C)N1CCN(c2ccc(Nc3ncc4cc5n(c4n3)C3(CCCCC3)CNC5=O)nc2)CC1.Cl.Cl`
Output: 17

====

system: WM2664 cells; assay: Cell cycle analysis (propidium iodide, flow cytometry); assay type: cell-based; conditions: Homo sapiens, WM 266-4; CDK4/6 dependent cells, 24 hours (Figure 1C); read-out: EC50 of G1 arrest
Assay Readout: EC50

Task: Which EC50 is listed for `CC(C)N1CCN(c2ccc(Nc3ncc4cc5n(c4n3)C3(CCCCC3)CNC5=O)nc2)CC1.Cl.Cl` ?
Output: ~20 nM
